assay: MTT assay for cytotoxicity; format: cell-based, Human; details: human, HepG2.2.15 cells, half (50%) lethal concentration
What CC50 at 8 days was measured for each of the following?

Could I get CC50 at 8 days for every one of these entries?
1. CC(C)(C)OC(=O)NCCCCNc1nc(F)c(-c2nn(Cc3ccc(C#N)cc3)c(=O)c3ccccc23)cc1Cl
2. CCOC(=O)CCNc1ccc(-c2nn(Cc3ccc(C#N)cc3)c(=O)c3ccccc23)c(F)n1
3. Cc1ccc2c(=O)n(Cc3ccc(Cl)cc3)nc(-c3ccc(C)nc3F)c2c1
4. N#Cc1ccc(Cn2nc(-c3ccc(C4CC4)nc3F)c3ccccc3c2=O)cc1

> 100 µM
> 100 µM
> 100 µM
> 100 µM

Could I get CC50 at 8 days for every one of these entries?
1. N#Cc1ccc(Cn2nc(-c3ccc(C(F)(F)F)nc3F)c3ccccc3c2=O)cc1
2. CCOCCCNc1ccc(-c2nn(Cc3ccc(C#N)cc3)c(=O)c3ccccc23)c(F)n1
3. CC(C)(C)OC(=O)CCNc1nc(F)c(-c2nn(Cc3ccc(C#N)cc3)c(=O)c3ccccc23)cc1Cl

1: > 100 µM; 2: 89.8 µM; 3: > 100 µM
